B1: Histone H1t, residues 44 to 112; numbered along this chain, P22492 (parent)
chain: VSKLITEALSVSQERVGMSLVALKKALAAAGYDVEKNNSRIKLSLKSLVNKGILVQTRGTGASGSFKLS

# Variants of: B1
# TEST DETAILS: abundance fitness (aPCA) (normalised: wild type 0, dead -1); higher = more abundant; growth selection in yeast, the domain comes from the species named
# MEASUREMENT PARAMETERS: Homo sapiens
Each record here notes measured abundance fitness.

S63I :: -0.045
K51G :: -0.322
G59N :: -0.186

Note to self: abundance fitness recorded for `T60Y` was -0.218

Note to self: abundance fitness recorded for `V34I` was -0.123

Note to self: abundance fitness recorded for `R58F` was -0.115

Note to self: abundance fitness recorded for `L45V` was -0.141

Note to self: abundance fitness recorded for `K46W` was -0.418
